# SYSTEM_NAME: T1, hIL-3 receptor (human, UniProt P26951)
# T1 sequence: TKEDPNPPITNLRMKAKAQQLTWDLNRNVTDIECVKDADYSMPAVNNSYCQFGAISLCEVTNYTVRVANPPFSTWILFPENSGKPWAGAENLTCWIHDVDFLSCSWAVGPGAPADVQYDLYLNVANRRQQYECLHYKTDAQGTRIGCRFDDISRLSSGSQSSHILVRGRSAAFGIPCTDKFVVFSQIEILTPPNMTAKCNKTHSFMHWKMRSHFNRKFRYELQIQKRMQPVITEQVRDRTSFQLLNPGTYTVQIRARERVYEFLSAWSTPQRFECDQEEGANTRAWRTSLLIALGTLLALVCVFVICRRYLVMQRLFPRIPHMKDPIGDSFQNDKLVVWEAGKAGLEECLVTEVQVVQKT
# PROCEDURE_SUMMARY: cell-based or functional assay
// Relative Biological Activity (AML 193 proliferation) lookup, one value per entry

The examples below pair each entry with its known result.
Q: Specify Relative Biological Activity (AML 193 proliferation) for pMON13295 polypeptide (ligand) MANCSIMIDEIIHHLKVPPAPLLDSNNLNSEDMDILMERNLRLPNLLAFVRAVKNLENASGIEAILRNLVPCLPSATAAPSRHPITIKAGDWQEFREKLTFYLVSLEHAQEQQ and stop.
Result: 3 EC50 (1-133)hIL-3 / EC50 mutant

Q: Supply recorded Relative Biological Activity (AML 193 proliferation) for pMON13407 polypeptide (ligand) MANCSIMIDEIIHHLKRPPNPLLDPNNLNSEDVDILMERNLRTPNLLAFVRAVKHLENASGIEAILRNLQPCLPSATAAPSRHPIIIKAGDWQEFREKLTFYLVTLEQAQEQQ here.
Result: 16 EC50 (1-133)hIL-3 / EC50 mutant

Q: Give reported Relative Biological Activity (AML 193 proliferation) value for pMON13300 polypeptide (ligand) MANCSNMIDEIITHLKQPPLPLLDFNNLNGEDQDILMENNLRRPNLEAFNRAVKSLQNASGIEAILRNLVPCLPSATAAPSRHPITIKAGDWQEFREKLTFYLVSLEHAQEQQ
Result: 3 EC50 (1-133)hIL-3 / EC50 mutant

// switching to the query binder
Q: Find the measured Relative Biological Activity (AML 193 proliferation) of pMON13411 polypeptide (ligand) MANCSIMIDEIIHHLKRPPNPLLDPNNLNSEDMDILMERNLRTPNLLAFVRAVKHLENASGIEAILRNLQPCLPSATAAPSRHPIIIKAGDWQEFRLKLQFYLSTLEQAQEQQ and report it.
Result: 1.2 EC50 (1-133)hIL-3 / EC50 mutant

The reported measurements were obtained from patent US6051217.
